# test_details: pKa by spectrophotometric titration
# Type: physicochemical
# applied_conditions: water, 1.0 m kcl, protonated 5-amino group (19H^+); 30° C., μ = 1.0 (KCl)
readout_kind: pKa
Answer with a number only.

GET /values?readout=pKa&item= `CC(=O)Nc1c(C)c(O)c2c(nc3n2CCC3)c1N`
9.44

###

# test_details: pKa by spectrophotometric titration
# Type: physicochemical
# applied_conditions: water, 1.0 m kcl, 8-OH of hydroquinone (20^- to 20^2-); 30° C., μ = 1.0 (KCl); approximated
readout_kind: pKa

Fill in: pKa of `CC(=O)Nc1c(C)c(O)c2c(nc3n2CCC3)c1O` is ___
> 14

###

# test_details: pKa by spectrophotometric titration
# Assay type: physicochemical
# applied_conditions: water, 1.0 m kcl, N(4)-protonated species; 30° C., μ = 1.0 (KCl)
What pKa was measured for each of the following?
Lab note: write the figure by itself, no unit.

Fill in: pKa of `CC(=O)Nc1c(C)c(O)c2c(nc3n2CCC3)c1O` is ___
6.02

Also, `CC(=O)NC1=C(C)C(=O)c2c(nc3n2CCC3)C1=O` please.
1.54

Next up: `CC(=O)Nc1c(C)c(O)c2c(nc3n2CCC3)c1N`
3.67

###

# test_details: Kinetics of hydrolysis and syn/anti isomerization in aqueous buffer
# Format: physicochemical
# applied_conditions: aqueous buffer, kinetically obtained, fit of equation 1, 30° C.; read-out: pKa4
readout_kind: pKa
Form field (numeric): enter value without unit.

Which pKa reading was recorded for the compound CC(=O)NC1=C(C)C(=O)c2c(nc3n2CCC3)C1=N [2a] ?
3.4

Ref: patent US5015742A
